- MEASURED TARGET: HiBit-WIZ fusion protein (Homo sapiens, UniProt O95785+Q96SW2)
- Sequence (O95785 whole entry, the tested form may be a part): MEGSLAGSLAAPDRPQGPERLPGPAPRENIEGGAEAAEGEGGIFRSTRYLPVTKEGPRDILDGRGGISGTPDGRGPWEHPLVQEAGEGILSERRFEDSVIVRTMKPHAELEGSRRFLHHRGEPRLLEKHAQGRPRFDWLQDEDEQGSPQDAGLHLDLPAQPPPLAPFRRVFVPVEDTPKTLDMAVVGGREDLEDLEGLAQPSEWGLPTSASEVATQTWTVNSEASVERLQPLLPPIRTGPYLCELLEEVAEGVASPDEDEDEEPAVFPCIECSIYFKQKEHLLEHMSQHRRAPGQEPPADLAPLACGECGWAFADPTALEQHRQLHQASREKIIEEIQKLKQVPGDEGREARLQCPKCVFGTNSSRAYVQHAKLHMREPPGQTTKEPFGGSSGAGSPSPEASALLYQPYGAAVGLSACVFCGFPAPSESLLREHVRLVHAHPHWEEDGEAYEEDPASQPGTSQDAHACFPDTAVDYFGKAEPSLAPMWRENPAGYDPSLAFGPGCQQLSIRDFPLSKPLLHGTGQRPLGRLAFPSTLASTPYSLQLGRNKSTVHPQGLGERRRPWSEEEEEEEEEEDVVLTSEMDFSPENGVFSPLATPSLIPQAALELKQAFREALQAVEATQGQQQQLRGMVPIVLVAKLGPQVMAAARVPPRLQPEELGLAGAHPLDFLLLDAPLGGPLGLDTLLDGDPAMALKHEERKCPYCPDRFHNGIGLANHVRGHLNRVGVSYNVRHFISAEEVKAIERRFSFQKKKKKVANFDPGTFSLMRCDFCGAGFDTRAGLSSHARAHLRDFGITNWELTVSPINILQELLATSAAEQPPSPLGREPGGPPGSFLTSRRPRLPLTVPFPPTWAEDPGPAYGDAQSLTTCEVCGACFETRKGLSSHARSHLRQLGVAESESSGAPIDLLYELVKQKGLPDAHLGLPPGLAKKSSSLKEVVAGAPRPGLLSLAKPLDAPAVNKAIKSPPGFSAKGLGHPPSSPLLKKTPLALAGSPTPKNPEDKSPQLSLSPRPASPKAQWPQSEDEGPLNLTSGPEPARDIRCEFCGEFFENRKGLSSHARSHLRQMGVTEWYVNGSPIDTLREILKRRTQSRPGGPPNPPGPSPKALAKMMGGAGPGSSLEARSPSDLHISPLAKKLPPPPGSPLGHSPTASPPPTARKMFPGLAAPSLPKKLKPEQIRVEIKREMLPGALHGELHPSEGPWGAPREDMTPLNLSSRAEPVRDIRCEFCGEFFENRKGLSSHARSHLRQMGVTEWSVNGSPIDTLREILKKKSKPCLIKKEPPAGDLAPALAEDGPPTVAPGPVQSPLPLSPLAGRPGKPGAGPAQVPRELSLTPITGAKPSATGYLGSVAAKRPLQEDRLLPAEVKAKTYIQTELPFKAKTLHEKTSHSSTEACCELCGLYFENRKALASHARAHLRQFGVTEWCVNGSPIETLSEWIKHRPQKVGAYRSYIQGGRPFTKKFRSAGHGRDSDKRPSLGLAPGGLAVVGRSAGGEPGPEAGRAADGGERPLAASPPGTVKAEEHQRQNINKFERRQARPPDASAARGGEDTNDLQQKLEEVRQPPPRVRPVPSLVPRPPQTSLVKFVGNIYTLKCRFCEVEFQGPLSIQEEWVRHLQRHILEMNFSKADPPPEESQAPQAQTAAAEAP
- Sequence (Q96SW2 whole entry, the tested form may be a part): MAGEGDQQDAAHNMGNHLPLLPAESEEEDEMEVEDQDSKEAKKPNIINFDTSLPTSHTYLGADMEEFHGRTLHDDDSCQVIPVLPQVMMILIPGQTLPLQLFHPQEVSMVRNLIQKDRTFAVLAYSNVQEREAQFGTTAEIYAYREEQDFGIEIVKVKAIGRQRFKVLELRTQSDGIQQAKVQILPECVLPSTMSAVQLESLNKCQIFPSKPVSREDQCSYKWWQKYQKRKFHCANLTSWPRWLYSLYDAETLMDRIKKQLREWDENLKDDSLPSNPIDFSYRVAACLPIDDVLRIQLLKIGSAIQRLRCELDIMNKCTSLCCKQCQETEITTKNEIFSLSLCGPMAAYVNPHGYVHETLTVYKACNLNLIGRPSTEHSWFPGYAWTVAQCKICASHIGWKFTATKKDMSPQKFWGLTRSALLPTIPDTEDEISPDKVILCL
- Sequence (Q16531 whole entry partner, the tested form may be a part): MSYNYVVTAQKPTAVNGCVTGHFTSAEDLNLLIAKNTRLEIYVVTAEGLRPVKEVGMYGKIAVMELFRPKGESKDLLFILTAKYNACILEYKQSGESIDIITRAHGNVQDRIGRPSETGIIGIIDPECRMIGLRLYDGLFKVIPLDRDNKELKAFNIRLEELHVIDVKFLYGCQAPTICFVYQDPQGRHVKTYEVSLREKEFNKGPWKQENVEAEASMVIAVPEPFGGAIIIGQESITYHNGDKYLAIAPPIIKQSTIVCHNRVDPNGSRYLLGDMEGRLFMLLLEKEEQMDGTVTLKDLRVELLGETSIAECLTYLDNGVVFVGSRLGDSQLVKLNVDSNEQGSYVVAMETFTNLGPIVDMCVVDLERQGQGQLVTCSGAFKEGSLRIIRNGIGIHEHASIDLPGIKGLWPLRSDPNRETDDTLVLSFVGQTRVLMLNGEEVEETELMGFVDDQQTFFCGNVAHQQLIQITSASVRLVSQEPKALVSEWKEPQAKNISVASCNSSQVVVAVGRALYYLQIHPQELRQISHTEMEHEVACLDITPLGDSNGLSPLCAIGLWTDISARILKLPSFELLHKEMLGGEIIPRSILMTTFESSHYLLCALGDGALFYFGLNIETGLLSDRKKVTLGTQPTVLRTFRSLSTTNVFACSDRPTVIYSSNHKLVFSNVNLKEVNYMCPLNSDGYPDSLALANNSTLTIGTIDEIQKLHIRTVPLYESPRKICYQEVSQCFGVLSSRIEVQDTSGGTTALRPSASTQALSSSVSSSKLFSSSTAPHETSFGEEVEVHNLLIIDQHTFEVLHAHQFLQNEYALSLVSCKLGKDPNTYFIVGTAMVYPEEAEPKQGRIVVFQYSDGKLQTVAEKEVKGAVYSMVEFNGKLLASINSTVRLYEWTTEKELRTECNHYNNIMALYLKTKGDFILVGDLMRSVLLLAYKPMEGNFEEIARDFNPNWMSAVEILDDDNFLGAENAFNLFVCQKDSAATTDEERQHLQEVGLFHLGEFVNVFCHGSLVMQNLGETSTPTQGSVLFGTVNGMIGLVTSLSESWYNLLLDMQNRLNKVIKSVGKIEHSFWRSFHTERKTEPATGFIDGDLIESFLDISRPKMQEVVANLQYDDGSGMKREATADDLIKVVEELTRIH
- ASSAY PROTOCOL: Quantification of WIZ protein levels in HiBit tag fusion protein assay (WIZ HiBit assay in 293T cells)
- Assay type: cell-based
- PARTICULARS: HEK-293T, DMSO-normalized, curve-fitted percentage of WIZ-HiBit remaining at 25 uM; 293T cells; read-out: WIZ Amax
remaining activity at up to 25 µM under 80% gets Satisfied, anything at or over 80% gets Not satisfied.

COMPOUND | LABEL CLASS
O=C1CCC(N2Cc3cc(OC[C@@H]4CCCCN4C(=O)CCc4c[nH]cn4)ccc3C2=O)C(=O)N1 (some centres unmarked) [Compound I-72gk] | Not satisfied
Cc1nc2ccccn2c1CN1CCCC[C@@H]1COc1ccc2c(c1)CN(C1CCC(=O)NC1=O)C2=O (some centres unmarked) [Compound I-50cd] | Satisfied
CC(Oc1ccccc1Cl)C(=O)N1CCCC[C@H]1COc1ccc2c(c1)CN(C1CCC(=O)NC1=O)C2=O (some centres unmarked) [Compound I-72ag] | Not satisfied
O=C1CCC(N2Cc3cc(OC[C@H]4CCCCN4Cc4ccc5c(c4)OC(F)(F)O5)ccc3C2=O)C(=O)N1 (some centres unmarked) | Satisfied
CC(C)(C)OC(=O)N1CCc2cccc(CN3CCCC[C@@H]3COc3ccc4c(c3)CN(C3CCC(=O)NC3=O)C4=O)c21 (some centres unmarked) | Satisfied
O=C1CCC(N2Cc3cc(OC[C@H]4CCCCN4CC4CCOC4)ccc3C2=O)C(=O)N1 (single isomer, unassigned) | Satisfied
CC(C)Oc1cccc(C(=O)N2CCCC[C@H]2COc2ccc3c(c2)CN(C2CCC(=O)NC2=O)C3=O)c1 (some centres unmarked) [Compound I-72ju] | Not satisfied
